B1: POU domain, class 3, transcription factor 2, residues 356 to 411; numbered along this chain, P20265 (parent)
chain: KKRTSIEVSVKGALESHFLKCPKPSAQEITSLADSLQLEKEVVRVWFCNRRQKEKR

Variants of: B1
Test: abundance fitness (aPCA) (normalised: wild type 0, dead -1); higher = more abundant; growth selection in yeast, the domain comes from the species named
Details: Homo sapiens

[
  {
    "mutantDesignation": "L19F",
    "abundance fitness": -0.474
  },
  {
    "mutantDesignation": "H17D",
    "abundance fitness": -0.833
  },
  {
    "mutantDesignation": "L38A",
    "abundance fitness": -0.713
  },
  {
    "mutantDesignation": "E54I",
    "abundance fitness": -0.665
  },
  {
    "mutantDesignation": "R44T",
    "abundance fitness": -0.08
  },
  {
    "mutantDesignation": "R56V",
    "abundance fitness": -0.033
  },
  {
    "mutantDesignation": "L14W",
    "abundance fitness": -0.915
  },
  {
    "mutantDesignation": "A26G",
    "abundance fitness": -0.141
  },
  {
    "mutantDesignation": "K40P",
    "abundance fitness": -0.027
  },
  {
    "mutantDesignation": "K20R",
    "abundance fitness": -0.223
  },
  {
    "mutantDesignation": "A13Y",
    "abundance fitness": -0.142
  },
  {
    "mutantDesignation": "V42D",
    "abundance fitness": 0.051
  },
  {
    "mutantDesignation": "V45Y",
    "abundance fitness": -0.152
  },
  {
    "mutantDesignation": "D34H",
    "abundance fitness": 0.212
  },
  {
    "mutantDesignation": "L36H",
    "abundance fitness": -0.527
  },
  {
    "mutantDesignation": "A33E",
    "abundance fitness": -0.55
  }
]
